Assay: chemical genetic growth profiling, strain panel (AID 1159580);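 further: tested at 20 µM; growth read once vehicle control cultures reached saturation at 30 °C; lower values mean less growth of the strain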
Settings: S. cerevisiae deletion strains, growth OD, locus YLR221C, strain rsa3
The campaign covered roughly 5,500 compounds. About 2,000 (36%) were called active. About 18% were inconclusive and are not listed. No stated cut-off is given here; in the data, active means normalized growth mostly below about 0.91 (no sharp cut-off); inconclusive means no clear call, values can overlap the other calls; inactive means mostly above about 0.92. The list shows a part of the results.
Outcomes: active, inactive

>  <compound>
COc1ccc2c(c1)OCC(Cc1ccc(OC)c(O)c1)C2=O (stereo not given)

>  <label_value>
inactive

$$$$
>  <compound>
C=C1C(=O)[C@]23[C@H](O)[C@H]1CC[C@H]2[C@@]12CO[C@]3(O)[C@H](O)[C@@H]1C(C)(C)CC[C@@H]2O

>  <label_value>
inactive

$$$$
>  <compound>
COc1cc2c(cc1OC)C1(O)C(=O)c3ccc(O)c(C(=O)O)c3OC1CO2 (stereo not given)

>  <label_value>
inactive

$$$$
>  <compound>
Clc1ccc(COC(Cn2ccnc2)c2ccc(Cl)cc2Cl)c(Cl)c1 (stereo not given)

>  <label_value>
active

$$$$
>  <compound>
CC(=O)O[C@]1(C)CC[C@@]23CC1C(C)(C)[C@@H]2CC[C@H]3C

>  <label_value>
inactive

$$$$
>  <compound>
COP(=S)(OC)Oc1ccc(Sc2ccc(OP(=S)(OC)OC)cc2)cc1

>  <label_value>
inactive

$$$$
>  <compound>
C[C@]12CCC3c4ccc(OC(=O)c5ccccc5)cc4CCC3C1CCC2=O (stereo not given in full)

>  <label_value>
inactive

$$$$
>  <compound>
O=C(O)C(O)C(O)C(=O)O (stereo not given)

>  <label_value>
inactive

$$$$
>  <compound>
CC(=O)O[C@H]1C[C@@H](OC(C)=O)C(C)(C)C2C[C@@H](OC(C)=O)[C@]3(C)C(CC[C@@]4(C)[C@H](c5ccoc5)OC(=O)[C@H]5O[C@]543)[C@]21C (stereo not given in full)

>  <label_value>
inactive

$$$$
>  <compound>
COC(=O)[C@@H]1OC(=O)C2OC23[C@@]1(C)CCC1[C@@]2(C)CCC(=O)C(C)(C)C2C[C@@H](OC(C)=O)[C@]13C (stereo not given in full)

>  <label_value>
inactive

$$$$
>  <compound>
CC(=O)O[C@H]1C[C@@]2(C)[C@@H](C[C@@H](O)C3[C@]2(C)CC[C@H]2[C@H](C)[C@H](O)CC[C@]32C)/C1=C(/CCC=C(C)C)C(=O)O (stereo not given in full)

>  <label_value>
inactive

$$$$
>  <compound>
CC(=O)O[C@@H]1CC2C(C)(C)[C@H](O)CC[C@]2(C)C2CC[C@@]3(C)[C@H](c4ccoc4)OC(=O)C4OC43[C@@]21C (stereo not given in full)

>  <label_value>
inactive

$$$$
>  <compound>
O=C(O)[C@@H](S)[C@@H](S)C(=O)O

>  <label_value>
inactive

$$$$
>  <compound>
C[C@@H]1CC[C@H]2C(C)(C)C3CC12CC[C@@]3(C)O (stereo not given in full)

>  <label_value>
active

$$$$
>  <compound>
CC(C)(S)[C@@H](N)C(=O)O

>  <label_value>
inactive

$$$$
>  <compound>
CC(O)(P(=O)(O)O)P(=O)(O)O

>  <label_value>
inactive

$$$$
>  <compound>
COc1ccc2c(c1)OCC(Cc1ccc(OC)c(OC)c1)C2=O (stereo not given)

>  <label_value>
inactive

$$$$
>  <compound>
CC(=O)Oc1ccc2c(c1)CCC1C2CC[C@]2(C)C(=O)CCC12 (stereo not given in full)

>  <label_value>
inactive

$$$$
>  <compound>
CN(C)CCC(c1ccccc1)c1ccccn1 (stereo not given)

>  <label_value>
inactive

$$$$
>  <compound>
N[C@@H](C(=O)O)[C@@H](O)[C@H](O)[C@H](O)CO

>  <label_value>
inactive

$$$$
